- procedure_details: qHTS assay to identify small molecule agonists of the estrogen receptor alpha (ER-alpha) signaling pathway in the presence of an antagonist - cell viability counter screen (AID 1259386);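 also: cells exposed to compounds for 22 h at 37 °C before the viability read; nearly all actives have a fitted effect of over 30% in size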
- recorded_conditions: VM7Luc4E2 viability, CellTiter-Fluor fluorescence, 22 h; series mostly up to 92.4 µM
Inconclusive results are not listed. Active and inactive are the calls of the source. Calls follow the shape of the dose curve; as a rule, active = well fitted cell-killing curve with a large enough effect in the repeat runs; inconclusive = weak or mixed curves, or effect the other way; inactive = no such curve, though single readings can be large or run the other way.
Pick one: yes for active, no for inactive

Example results:
molecule=Clc1nnc(Cl)c2ccccc12 group=no
molecule=Clc1sc(Cl)c(Cl)c1Cl group=no
molecule=CCCCOC(=O)CC group=no

Fill in: this test's call for CC(C)(C)C1CCC(=O)CC1 is ___
no

What outcome does the record of this test show for COc1cccc(OC)c1C(=O)O ?
no

Hi, do you know how O=[N+]([O-])c1ccc(F)c(Cl)c1 came out in this test?
no

Hey, what did the test say about CN1CCCCC1CCN1c2ccccc2Sc2ccc(S(C)=O)cc21 (stereo unspecified) ?
no

Any idea what this test logged for O[C@@H]([C@H](O)[C@H](O)CBr)[C@H](O)CBr ?
no

GET /call?item= Nc1nc(-c2ccccc2)cs1 returns the recorded outcome of this test.
no

// outcome(item) with item = O=c1oc2cc(O)ccc2c2oc3cc(O)ccc3c12
no

Per the assay record, what outcome was assigned to CCC(C)n1ncn(-c2ccc(N3CCN(c4ccc(OC[C@H]5CO[C@](Cn6cncn6)(c6ccc(Cl)cc6Cl)O5)cc4)CC3)cc2)c1=O (stereo partly specified) ?
no

Check the results log: what was the call for O=C(Nc1ccc2c(O)c(N=Nc3ccc(N=Nc4ccc(S(=O)(=O)O)cc4)cc3)c(S(=O)(=O)O)cc2c1)c1ccccc1 ?
yes

* * *

- procedure_details: qHTS assay to identify small molecule antagonists of the thyroid receptor (TR) signaling pathway - cell viability counter screen (AID 743064); also: nearly all actives have a fitted effect of over 50% in size
- recorded_conditions: GH3.TRE-Luc viability, CellTiter-Fluor, 24 h; series mostly up to 70.3 µM
Inconclusive results are not listed. Calls of active or inactive are those of the source. Calls follow the shape of the dose curve; as a rule, active = well fitted cell-killing curve with a large enough effect in the repeat runs; inconclusive = weak or mixed curves, or effect the other way; inactive = no such curve, though single readings can be large or run the other way.
The reply should name one outcome from TRUE (active), FALSE (inactive)

Solved entries (count: 5):
molecule=CCCCCCCCCCCCOC(=O)c1ccc(O)cc1 group=TRUE
molecule=O=C(O)c1cccc(C(F)(F)F)c1 group=FALSE
molecule=O=C(Nc1ccc2c(O)c(N=Nc3ccc(N=Nc4ccc(S(=O)(=O)O)cc4)cc3)c(S(=O)(=O)O)cc2c1)c1ccccc1 group=TRUE
molecule=CCC(=O)OC(=O)CC group=FALSE
molecule=CCCC(=O)OC(C)(C)Cc1ccccc1 group=FALSE

For this molecule, state the assay outcome: FC(F)(F)c1cccc(Cl)c1
FALSE

State the result this test recorded for CN1CCN2c3ccccc3Cc3ccccc3C2C1 (configuration not stated) .
TRUE

* * *

- procedure_details: qHTS RealTime-Glo MT Cell Viability Assay in HEK293 cells - 24 hour (AID 1224886); also: nearly all actives have a fitted effect of over 50% in size; also: potency is read from the fitted curve at half-maximal effect
- recorded_conditions: RealTime-Glo luminescence; series mostly up to 76.8 µM
Records with an inconclusive call do not appear. Active and inactive are the calls of the source. Calls come from the whole dose curve; as a rule, active = well fitted cell-killing curve with a large enough effect in the repeat runs; inconclusive = weak or mixed curves, or effect the other way; inactive = flat fitted curve, though single readings scatter.
outcome_measure: Potency

Please review the following examples before continuing.
smiles_input=O=C(O)Cc1ccc2c(c1)C(=O)c1ccccc1CO2 outcome_measure=Potency test_result=inactive
smiles_input=CCCCC/C=C\C/C=C\CCCCCCCC(=O)O outcome_measure=Potency test_result=inactive
smiles_input=CCC(COC(=O)CCS)(COC(=O)CCS)COC(=O)CCS outcome_measure=Potency test_result=inactive
smiles_input=COc1cc(C)ccc1O outcome_measure=Potency test_result=inactive
smiles_input=Fc1ccc(C(c2ccc(F)cc2)N2CCNCC2)cc1 outcome_measure=Potency test_result=inactive
smiles_input=CCCCCCCCCCCCOCCOCCOCCOCCOCCOCCOCCOCCOCCO outcome_measure=Potency test_result="5.35 µM (active)"
smiles_input=CC(=O)CC(=O)Nc1ccc(S(=O)(=O)O)cc1 outcome_measure=Potency test_result=inactive
smiles_input=C=CC(=O)Nc1cc2c(Nc3ccc(F)c(Cl)c3)ncnc2cc1OCCCN1CCOCC1 outcome_measure=Potency test_result="10.7 µM (active)"
smiles_input=CC(=O)c1ccc(C(C)=O)cc1 outcome_measure=Potency test_result=inactive
smiles_input=CCCCCCCCCCC[C@@H](C[C@@H]1OC(=O)[C@H]1CCCCCC)OC(=O)[C@H](CC(C)C)NC=O outcome_measure=Potency test_result="8.49 µM (active)"

Given the entry COc1cc(S(=O)(=O)O)c(C)cc1N=Nc1c(O)ccc2cc(S(=O)(=O)O)ccc12 , report its measured Potency.
inactive

Name the reported Potency value associated with the compound Cc1ccc(C)cc1
inactive

* * *

- procedure_details: qHTS RealTime-Glo MT Cell Viability Assay in HepG2 cells - 16 hour (AID 1224885); also: % is scaled to controls: 0 for no effect and ±100 for the full control effect; nearly all actives have a fitted effect of over 50% in size
- recorded_conditions: RealTime-Glo luminescence; series mostly up to 76.8 µM
- Text: U.S. Tox21 Program National Center for Advancing Translational Sciences [NCATS] NIH Chemical Genomics Center [NCGC] U.S. Environmental Protection Agency [EPA] National Institutes of Environmental Health Sciences [NIEHS] National Toxicology Program [NTP] U.S. Food and Drug Administration [FDA] Tox21 Assay Overview: Measure of cell viability is critical in the cell-base assay. Analysis of cell viability is necessary for the characterization of cell responses to cytotoxic drugs and environmental stress. […]
Inconclusive results are not listed. Activity calls are given as the source filed them. Calls come from the whole dose curve; as a rule, active = well fitted cell-killing curve with a large enough effect in the repeat runs; inconclusive = weak or mixed curves; inactive = flat fitted curve, though single readings scatter.
outcome_measure: activity change, negative = cytotoxic

Worked set:
smiles_input=COc1cc(C)ccc1O outcome_measure="activity change, negative = cytotoxic" test_result=inactive
smiles_input=CCN(CC)c1ccc2c(-c3ccc(S(=O)(=O)O)cc3S(=O)(=O)[O-])c3ccc(=[N+](CC)CC)cc-3oc2c1 outcome_measure="activity change, negative = cytotoxic" test_result=inactive
smiles_input=C=C(C)C(=O)OCCCCCCCCCC outcome_measure="activity change, negative = cytotoxic" test_result=inactive
smiles_input=CC[N+](CC)(CC)CCOC(=O)C(C1CCCC1)C1CCCC1 outcome_measure="activity change, negative = cytotoxic" test_result=inactive

Can you look up the measured activity change, negative = cytotoxic of O=C1CCc2cc(OCCCCc3nnnn3C3CCCCC3)ccc2N1 for me?
inactive

For CC(C)(C)CC(C)(C)c1ccc(Nc2ccc(C(C)(C)CC(C)(C)C)cc2)cc1 , what is its reported activity change, negative = cytotoxic?
0.171% [at 6.97 µM] (inactive)

* * *

- procedure_details: qHTS assay to identify small molecule antagonists of the androgen receptor (AR) signaling pathway - cell viability counter screen (AID 743033; also: % is scaled to controls: 0 for no effect and ±100 for the full control effect; nearly all actives have a fitted effect of over 45% in size)
- recorded_conditions: AR-bla HEK293 viability, CellTiter-Glo luminescence, 16 h; series mostly up to 58.5 µM
Inconclusive results are not listed. The source made the active and inactive calls. Calls come from the whole dose curve; as a rule, active = well fitted cell-killing curve with a large enough effect in the repeat runs; inconclusive = weak or mixed curves; inactive = no such curve, though single readings can be large or run the other way.
outcome_measure: activity change, negative = cytotoxicity

smiles_input=C#C[C@]1(O)CC[C@H]2[C@@H]3[C@H](C)CC4=C(CCC(=O)C4)[C@H]3CC[C@@]21C test_result=inactive
smiles_input=Cc1ccc(O)c(O)c1 test_result=inactive
smiles_input=CC1=Nc2ccccc2C1(C)C test_result=inactive
smiles_input=CCn1c2ccccc2c2cc([N+](=O)[O-])ccc21 test_result=inactive

In the following, a different molecule is considered.
Would you kindly share the measured activity change, negative = cytotoxicity for COC(C)=O ?
inactive

* * *

- procedure_details: qHTS assay to identify small molecule antagonists of the estrogen related receptor (ERR) signaling pathway from Tox21 library (AID 1224848); also: nearly all actives have a fitted effect of over 50% in size
- recorded_conditions: ERR reporter cell line, luciferase antagonist mode, 18 h; series mostly up to 92.4 µM
Inconclusive results are not listed. Activity calls are given as the source filed them. Calls follow the shape of the dose curve; as a rule, active = well fitted inhibition curve with a large enough effect in the repeat runs; inconclusive = weak or mixed curves; inactive = no such curve, though single readings can be large or run the other way.
Result category, one only: active, inactive

Some solved entries appear below for comparison.
compound=CCN(CC)C(=O)c1cc(S(=O)(=O)Cc2ccccc2)c(N2CCC(c3ccccc3)CC2)cc1N(CC)CCN(C)C group=active
compound=COC(=O)c1ccccc1OC group=inactive
compound=OC[C@@H](O)[C@@H](O)CO group=inactive
compound=O=C(Oc1ccccc1)Oc1ccccc1 group=inactive
compound=O=S(=O)(O)c1ccc(Nc2nc(Nc3ccc(/C=C/c4ccc(Nc5nc(Nc6ccc(S(=O)(=O)O)cc6)nc(N(CCO)CCO)n5)cc4S(=O)(=O)O)c(S(=O)(=O)O)c3)nc(N(CCO)CCO)n2)cc1 group=inactive
compound=Cc1cccc2cccnc12 group=inactive
compound=COc1ccc2c(c1)c(CC(=O)OC/C=C(\C)CC/C=C(\C)CCC=C(C)C)c(C)n2C(=O)c1ccc(Cl)cc1 group=inactive
compound=CC(C)(C)C1CCC(=O)CC1 group=inactive

Hey, what did the test say about Nc1nc2c(ncn2COCCO)c(=O)[nH]1 ?
inactive

Called result for CC[N+](CC)(CC)CCOc1ccc(/C=C/c2ccccc2)cc1
active

Field: outcome | Entry: O=C(c1ccc(O)c(O)c1)c1ccc(O)cc1O
active

Would you mind telling me which call this test gave OC1CCC(C2CCCCC2)CC1 (stereo not given) ?
inactive

* * *

- procedure_details: qHTS RealTime-Glo MT Cell Viability Assay in HEK293 cells - 8 hour (AID 1224887)
- recorded_conditions: RealTime-Glo luminescence; series mostly up to 76.8 µM
Inconclusive results are not listed. The source made the active and inactive calls. Calls follow the shape of the dose curve; as a rule, active = well fitted cell-killing curve with a large enough effect in the repeat runs; inconclusive = weak or mixed curves, or effect the other way; inactive = flat fitted curve, though single readings scatter.
Write down the outcome that applies. Available outcomes: 1 for active, -1 for inactive

Use the examples below as a reference point.
compound=CCC(=O)OC(=O)CC group=-1
compound=COc1cc(S(=O)(=O)O)c(C)cc1N=Nc1c(O)ccc2cc(S(=O)(=O)O)ccc12 group=-1

I'd appreciate the recorded outcome for Fc1ccc(C(c2ccc(F)cc2)N2CCNCC2)cc1 from this test.
-1

What outcome does the record of this test show for Cc1cc(C(C#N)c2ccc(Cl)cc2)c(Cl)cc1NC(=O)c1cc(I)cc(I)c1O (configuration not stated) ?
-1

Dear colleague, could you share the recorded outcome for CCCCCCC1CCCC(=O)O1 (configuration not stated) when you have a moment?
-1

Fill in: this test's call for S=c1nccc[nH]1 is ___
-1

All figures here come from PubChem BioAssay (Tox21).
